Let's look at some molecules and their measured AC50.
System: GFP-labeled iPSC-derived human cortical glutamatergic neurons
Experiment: cells
Settings: Neuron, 48 h, read-out: Viability AC50 (48hr)
parameter: AC50 (µM)

- molecule: "Oc1ccc(C2=Cc3ccc(O)cc3OC2)cc1"
  parameter: "AC50"
  readout.unit: "µM"
  readout.number: 4.33
- molecule: "O=c1cc(N2CCOCC2)oc2c(-c3cccc4c3sc3ccccc34)cccc12 [NU-7441, reference compound]"
  parameter: "AC50"
  readout.unit: "µM"
  readout.number: 7.6
- molecule: "C=C[C@@H](C1=CC(=O)C(OC)=C(OC)C1=O)c1ccccc1"
  parameter: "AC50"
  readout.unit: "µM"
  readout.number: 6.54
- molecule: "CC1=C(O)C(=O)C=C2C1=CC=C1[C@@]2(C)CC[C@@]2(C)[C@@H]3C[C@](C)(C(=O)O)CC[C@]3(C)CC[C@]12C"
  parameter: "AC50"
  readout.unit: "µM"
  readout.number: 5.47
